Data origin: the supplement of paper PMC9732359

Experiment: protein stability index of a GFP-peptide fusion (yeast GPS) (PSI 1-4); higher = more stable; sorted into four equal gates, so the index is relative within each strain
Conditions: pdr5∆
protein stability index vs 3: at or above is rule met, below is rule not met.

* DLSLLGYCDDIAAMVAQ [SIR2] | rule not met
* DQRDELLEQKKSIINSQ [ITC1] | rule met
* FPPGVIGIDEGSDEAYV [RPC40] | rule met
* SVINNYLREDQMIDTSI [NUT1] | rule met
* PIGEAGDFGGWFCPCHG [RIP1] | rule not met
* QFLQLDNDGFSFLMRQF [ECM29] | rule not met
* SKLLQTTLKLSPSPILL [NUT1] | rule not met
* LIKMSRSPPRPPSLKII [PRP28] | rule not met
* IWLRKTSQMDLARDTPS [RRP4] | rule not met
* EKIMENKYPELLGKDNE [AAR2] | rule met
* DLAMANSLRRVMIAEIP [RPB3] | rule not met
* LITLFNKGELETQPGCN [RPO31] | rule met
* NLERLRSDLQSKIQEIE [YIL149C/MLP2] | rule met
* PGSVNSAAKYKDMKLLR [NUT1] | rule not met
* GYGSNKKTKFLSPSGHK [RPL32] | rule not met
* LQFRPAPMYILDEVDAA [SMC2] | rule not met
* LTDLDSPSEFVDVAIPC [RPS0A] | rule not met
* NNGLPMKNKAETTTEED [ITC1] | rule met
* ARKYLQTRWGLPSGRQD [FAS2] | rule not met
* KQTDTGITHFRAGMTHE [PRP8] | rule not met
* SADREIQRTLMELLTQM [RPT4] | rule met
* VERIQKMIEKIEKMSTI [YIL149C/MLP2] | rule met
* IDNYITNSVRLFEVNPS [SRP21] | rule not met
* QQIWKSPNFKNYLKYLE [SOH1] | rule not met
* LEGEELAFYLRRLTAKK [RPS8A] | rule not met
* IQNDIYLNDLMITKRIL [RPN12] | rule not met
* FKDVEHISFNFSMLQMA [BRR2] | rule not met
* YSFGGLLMRLEGNYRNL [RPB8] | rule not met
* VDDAIELALKTLSKTTD [PRE9] | rule not met
* SSIQESLLSLVGHLSIL [ECM29] | rule not met
* VHPDYLYGAITEDRYNE [FAS2] | rule not met
* KLDLFKYFTELSHYIRQ [MED1] | rule not met
* SVQINVAKVDEEGRAIP [RPS21A] | rule met
* VRNYKPLINRLKHYNGY [SWI1] | rule not met
* KFFQKKIHLYEKKLEDY [YGL172W/NUP49] | rule not met
* QQVPPLPDELTLSYDDI [DLS1] | rule not met
* ELLETVSLTKRKQEREI [YIL149C/MLP2] | rule not met
* VIQIVTGIFMAMHYSSN [COB] | rule not met
* DIKDFADKVYTKENLEV [QCR2] | rule met
* SYVVPRLYLKDQTNHIE [ECM29] | rule not met
* TDSSALTYDRLEFATIR [PRE9] | rule met
* VREFQRRLAFLGIKVAE [BRR2] | rule not met
* QMDGFDNLGQTKIIMAT [RPT4] | rule met
* TTVITVFLEFSLNFIPI [YML103C/NUP188] | rule not met
* RAIPFRRFNSSIGRTAQ [RPL17A] | rule not met
* LSIICVGGHNVTIREQI [SIR3] | rule not met
* EESLTVLNCLRTMYFIL [YJR042W/NUP85] | rule not met
* SNAFYSVLRDTLVAQNL [SMC4] | rule not met
* KASTYGELVLDIEVPDV [SNF12] | rule not met
* EDARRNPNPSSQRAQVV [RPC37] | rule met

* * *

Assay: protein stability index of a GFP-peptide fusion (yeast GPS) (PSI 1-4); higher = more stable; sorted into four equal gates, so the index is relative within each strain
Details: san1∆
quantity.name: protein stability index

* KERLTKEAAAIAEGKSK [RPL8B] | 2.02
* FHIGYFKATIQILQGIC [RPO31] | 1.72
* EVWSVSWNLTGTILSSA [YGL100W/SEH1] | 1.33
* PREDKENNRLLFECRTC [RPB9] | 3.02
* LERIVQIMQNPTHYKIP [RPS18A] | 2.9
* DFDESLKYLDDLKAQFQ [RPN9] | 3.12
* EKPLTPLKYTKLIAAAE [SNF6] | 1.22
* AASWYGSFNEMKRNCGQ [RMP1] | 3.06
* GASVISLTKDKSIRKDT [SIR4] | 3.06
* MASRVDETTVPSYYYYV [ROX3] | 1.94
* FMEIVLEYNVALNDVYL [YML031W/NDC1] | 2.22
* KVLARQQLQVLARYLKM [FAS2] | 1.75
* ENDAKKSKGDVDIKGED [NUT1] | 2.95
* QQQQQQQQGQIPQSQQV [SNF5] | 2.26

* * *

Experiment: protein stability index of a GFP-peptide fusion (yeast GPS) (PSI 1-4); higher = more stable; sorted into four equal gates, so the index is relative within each strain
Details: san1∆
quantity.name: protein stability index

• GLFPFESYKPSVQLPDM [SWI3] = 2.96
• KNPLFSYVEPVLVASAK [RPL31A] = 2.49
• DNSNVMTVKLESITYQK [RGR1] = 3.1
• GMTKSNIYNFSPSERIE [BRR2] = 3.01
• SQCRLHELREKERISVA [PRE2] = 2.87
• AEEQTKLQSQSLHTKNV [YLR018C/POM34] = 3.1
• QAELLQLAVKIINKVLD [YJL039C/NUP192] = 2.74

* * *

Test: protein stability index of a GFP-peptide fusion (yeast GPS) (PSI 1-4); higher = more stable; sorted into four equal gates, so the index is relative within each strain
Conditions: pdr5∆
protein stability index vs 2: at or above is 1 (yes), below is 0 (no).

* IEAGRAALYKEVYNVIA [RPO21] | 0 (no)
* SKNFNVILASSLNEVGT [YML103C/NUP188] | 1 (yes)
* NEFQLQWGKYQTFGVDI [SWI1] | 1 (yes)
* VRNLQGIQEVVHNTNSF [NUT1] | 1 (yes)
* SVDDVLSALDHIGHSAL [DPB4] | 1 (yes)
* KNLSLQTGTKPVLKKKA [COR1] | 1 (yes)
* DLGITEKNDQNNDDDDN [MCD1] | 1 (yes)
* FESSSSLPFLLRHMPLA [SSN2] | 0 (no)
* IHEIRLNTLNNVVEIWV [SIR3] | 0 (no)
* HNLHPQIGQVPLAPAPI [SNF5] | 1 (yes)
* YILEAEAAAKEKDELDN [QCR7] | 1 (yes)
* TKTEALLSDVVSTSSGA [YJL041W/NSP1] | 1 (yes)
* QNPLPTRFEVELEFIQS [SOH1] | 1 (yes)
* NNIFKEFTSKIGFTIKE [SMC1] | 1 (yes)

* * *

Quick list: protein stability index per entry.
Experiment: protein stability index of a GFP-peptide fusion (yeast GPS) (PSI 1-4); higher = more stable; sorted into four equal gates, so the index is relative within each strain
Details: ubr1∆
quantity.name: protein stability index

- KFDSRIRGILMASGSTT [PRP8]: 2.19
- QKNYADPEKDSINATAL [SIN4]: 1.59
- DLIKFSAETLSELIRTT [FAS1]: 2.12
- CFICLLHLANEHGLQIT [BRN1]: 2.87
- VHDLNKYKSNTNNMEKI [SMC2]: 3.47
- TKYFEPTSTENNKKVVG [ECM29]: 2.97
- PWFWLLPLWHLLNRIPR [POP1]: 1.26
- VNVLLQSYFSQLKFEGF [BRR2]: 1.48

* * *

Assay: protein stability index of a GFP-peptide fusion (yeast GPS) (PSI 1-4); higher = more stable; sorted into four equal gates, so the index is relative within each strain
Conditions: san1∆
quantity.name: protein stability index

• KLSKILRTEYGWDSLAS [SNU114] = 3.1
• QDREITNWARTTFRNEY [MED8] = 2.47
• EKIFHYGHVFLGITGLA [PUP3] = 1.15
• EFKIEQNNEQNPIDPFN [YDL116W/NUP84] = 3.05
• EDNNDAVNSIMALKFVS [ECM29] = 3.03
• KALAIFVPVPSLAGFHK [RPS7A] = 1.77
• DQVLVKGGEQISQLYSD [YJL041W/NSP1] = 3.2
• NEYVAKVSAREKSAYKF [FAS2] = 3.04
• KDSNKDVVVEGLRRARY [RPL10] = 3.38
• SSRFIKGGSLYGLGLIY [RPN2] = 2.38
• ISAEDRADTDLAMNDDD [SNF2] = 3.35
• VDSRATAGNWVASQTVK [PRE2] = 3.13
• QQWGNDFYKRDPRIAPL [FAS2] = 1.87
• NVGELIEKNVMESIGSD [RRP4] = 2.62
